- System: Danio rerio larvae (5 dpf)
- Assay Comment: optomotor response to blue moving lines, difference vs DMSO (percentage points (treated minus DMSO)); higher = more of the behaviour than the DMSO vehicle control
- Measurement Parameters: 10 µM; exposure time: 3 h pre-incubation + 3 h imaging
Structures can show the parent of a compound that is named as a salt.
Outcome Measure: optomotor response to blue moving lines
The answer should be written as a number, with no unit following it.

Problem: GET /values?readout=optomotor response to blue moving lines&item= CCOC(=O)[C@H](CCc1ccccc1)N[C@@H](C)C(=O)N1[C@H](C(=O)O)C[C@@H]2CCC[C@@H]21
Result: 4.54

Problem: // returns reported optomotor response to blue moving lines for input CN(C)CCc1c[nH]c2ccc(C[C@H]3COC(=O)N3)cc12
Result: 9.9

Problem: Name the recorded optomotor response to blue moving lines for COc1ccccc1OCC(O)CN1CCN(CC(=O)Nc2c(C)cccc2C)CC1 (configuration not stated) [Ranolazine dihydrochloride] .
Result: 13.8

Problem: Any idea what optomotor response to blue moving lines was measured for Cc1ccccc1C(=O)Nc1ccc(C(=O)N2CCCC(O)c3cc(Cl)ccc32)c(C)c1 (configuration not stated) ?
Result: -0.344

Problem: Endpoint output: optomotor response to blue moving lines of CC(C)(C#N)c1cc(Cn2cncn2)cc(C(C)(C)C#N)c1 . Value?
Result: -5.16

Problem: Suppose we examine the molecule CC[C@H]1OC(=O)[C@H](C)[C@@H](O[C@H]2C[C@@](C)(OC)[C@@H](O)[C@H](C)O2)[C@H](C)[C@@H](O[C@@H]2O[C@H](C)C[C@H](N(C)C)[C@H]2O)[C@](C)(O)C[C@@H](C)CN(C)[C@H](C)[C@@H](O)[C@]1(C)O ; what optomotor response to blue moving lines value has been reported?
Result: -9.61

Problem: For the molecule CC(=O)O[C@]1(C(C)=O)CC[C@H]2[C@@H]3C=C(C)C4=CC(=O)CC[C@]4(C)[C@H]3CC[C@@]21C [Megestrol Acetate] , what optomotor response to blue moving lines is on record?
Result: -7.55

Problem: Report optomotor response to blue moving lines for O=c1[nH]c(=O)n([C@H]2C[C@H](O)[C@@H](CO)O2)cc1C(F)(F)F please.
Result: 6.73

Problem: So what's the measured optomotor response to blue moving lines for this one? CCOc1nc2cccc(C(=O)O)c2n1Cc1ccc(-c2ccccc2-c2noc(=O)[nH]2)cc1
Result: 7.48

Problem: Recorded optomotor response to blue moving lines of COCCCOc1cc(C[C@@H](C[C@H](N)[C@@H](O)C[C@H](C(=O)NCC(C)(C)C(N)=O)C(C)C)C(C)C)ccc1OC [Aliskiren hemifumarate] , please.
Result: -5.15

Problem: optomotor response to blue moving lines for CC(C)c1nc(CN(C)C(=O)N[C@H](C(=O)N[C@@H](Cc2ccccc2)C[C@H](O)[C@H](Cc2ccccc2)NC(=O)OCc2cncs2)C(C)C)cs1 ?
Result: -11.8

Problem: Which measured optomotor response to blue moving lines value corresponds to C[C@@H](O[C@H]1OCCN(Cc2n[nH]c(=O)[nH]2)[C@H]1c1ccc(F)cc1)c1cc(C(F)(F)F)cc(C(F)(F)F)c1 [Aprepitant] ?
Result: 4.96

Problem: For the molecule CCN(Cc1ccncc1)C(=O)C(CO)c1ccccc1 (configuration not stated) [Tropicamide] , what optomotor response to blue moving lines is on record?
Result: 0.00192

Problem: # query: optomotor response to blue moving lines of entry CN1CCC[C@@H]1Cc1c[nH]c2ccc(CCS(=O)(=O)c3ccccc3)cc12 [Eletriptan hydrobromide]
Result: 5.86

Problem: Please give the measured optomotor response to blue moving lines for this molecule: Cc1cn([C@H]2C=C[C@@H](CO)O2)c(=O)[nH]c1=O
Result: 10

Problem: Give its optomotor response to blue moving lines value. Item: N#C[C@@H]1C[C@@H]2C[C@@H]2N1C(=O)[C@@H](N)C12CC3CC(CC(O)(C3)C1)C2 [Saxagliptin hydrochloride]
Result: -7.01

Problem: Find the recorded optomotor response to blue moving lines belonging to CNC(=O)c1ccccc1Sc1ccc2c(/C=C/c3ccccn3)n[nH]c2c1 and report it.
Result: 13.5

Problem: Fill in the blank: the reported optomotor response to blue moving lines of CN(C)CCc1c[nH]c2ccc(Cn3cncn3)cc12 [Rizatriptan benzoate] is ____.
Result: 3.13

Problem: Consider the molecule COC(c1ccccc1)(c1ccccc1)[C@H](Oc1nc(C)cc(C)n1)C(=O)O and give its measured optomotor response to blue moving lines.
Result: -7.26

Problem: What does the data say about its optomotor response to blue moving lines? Entry: CN(C)CCC[C@@]1(c2ccc(F)cc2)OCc2cc(C#N)ccc21 [Escitalopram oxalate]
Result: 1.97

Problem: Name the recorded optomotor response to blue moving lines for CCOC(=O)[C@H](CCc1ccccc1)N[C@H]1CCc2ccccc2N(CC(=O)O)C1=O [Benazepril hydrochloride] .
Result: 5.7

Problem: Param item = NC(=O)N1c2ccccc2C=Cc2ccccc21 [Carbamazepine] ; retrieve measured optomotor response to blue moving lines.
Result: 12.9

* * *

- System: Danio rerio larvae (5 dpf)
- Assay Comment: optomotor response to blue moving lines, difference vs DMSO (percentage points (treated minus DMSO)); higher = more of the behaviour than the DMSO vehicle control
- Measurement Parameters: 10 µM; exposure time: 3 h pre-incubation + 3 h imaging
Structures can show the parent of a compound that is named as a salt.
Outcome Measure: optomotor response to blue moving lines

Problem: Any idea what its optomotor response to blue moving lines is? The compound is Brc1c(NC2=NCCN2)ccc2nccnc12
Result: 7.07

Problem: Query: optomotor response to blue moving lines; subject: Nc1nc2[nH]cc(CCc3ccc(C(=O)N[C@@H](CCC(=O)O)C(=O)O)cc3)c2c(=O)[nH]1
Result: 1.87

Problem: # query: optomotor response to blue moving lines of entry C[C@H]1O[C@H](O[C@H]2[C@H](O)[C@@H](O)[C@@H](O[C@H]3[C@H](O)[C@@H](O)C(O)O[C@@H]3CO)O[C@@H]2CO)[C@H](O)[C@@H](O)[C@@H]1N[C@H]1C=C(CO)[C@@H](O)[C@H](O)[C@H]1O (stereo not given in full)
Result: 15.5

Problem: Consider the compound shown here: CC(=O)Oc1cc2c(s1)CCN(C(C(=O)C1CC1)c1ccccc1F)C2 (stereo not given) What is its recorded optomotor response to blue moving lines?
Result: 3.83

Problem: Look at this compound and give its reported optomotor response to blue moving lines. CN(CCOc1ccc(NS(C)(=O)=O)cc1)CCc1ccc(NS(C)(=O)=O)cc1 [Dofetilide]
Result: -7.25

Problem: Reported optomotor response to blue moving lines, compound Cc1ccsc1C(=CCCN1CCC[C@@H](C(=O)O)C1)c1sccc1C [Tiagabine hydrochloride] : ____
Result: 24.1

Problem: Quick one: optomotor response to blue moving lines for O=C(Nc1c(Cl)cncc1Cl)c1ccc(OC(F)F)c(OCC2CC2)c1 ?
Result: -1.76

Problem: Give its optomotor response to blue moving lines value. Item: Nc1cccc2c1CN(C1CCC(=O)NC1=O)C2=O (stereo not given) [Lenalidomide]
Result: 3.02

Problem: Please look up its optomotor response to blue moving lines: COc1ccc(-c2ccc3cc(C(=O)O)ccc3c2)cc1C12CC3CC(CC(C3)C1)C2
Result: -1.19

Problem: Could you tell me which optomotor response to blue moving lines is on file for OCCN(CCO)c1nc(N2CCCCC2)c2nc(N(CCO)CCO)nc(N3CCCCC3)c2n1 ?
Result: -5.39

Problem: Field request: optomotor response to blue moving lines | item: CCCCCCCCc1ccc(CCC(N)(CO)CO)cc1
Result: -1.76

Problem: I'd like to know its optomotor response to blue moving lines. The compound in question is CC(c1cc2ccccc2s1)N(O)C(N)=O (stereo not given)
Result: -7.52

Problem: Entry COc1c(C)c2c(c(O)c1C/C=C(\C)CCC(=O)O)C(=O)OC2 : reported optomotor response to blue moving lines = ?
Result: 7

Problem: GET /values?readout=optomotor response to blue moving lines&item= CC(=O)Oc1ccccc1C(=O)O
Result: 2.57

Problem: If you can, please state the reported optomotor response to blue moving lines value of CC(=O)Nc1ccc(O)cc1 .
Result: 5.11

Problem: Suppose we examine the compound OCCN1C[C@H](O)[C@@H](O)[C@H](O)[C@H]1CO ; what optomotor response to blue moving lines value has been reported?
Result: 5.95

Problem: Data request, read-out optomotor response to blue moving lines, for O=C(O[C@@H]1C[C@@H]2C[C@H]3C[C@H](C1)N2CC3=O)c1c[nH]c2ccccc12 [Dolasetron mesylate]
Result: 0.622

Problem: Tell me the measured optomotor response to blue moving lines of CCCCC(=O)N(Cc1ccc(-c2ccccc2-c2nnn[nH]2)cc1)[C@H](C(=O)O)C(C)C , please.
Result: 6.89

Problem: Query: optomotor response to blue moving lines; subject: CCCc1nc2c(C)cc(-c3nc4ccccc4n3C)cc2n1Cc1ccc(-c2ccccc2C(=O)O)cc1
Result: 8.47

Problem: Which optomotor response to blue moving lines is reported for this compound? CC(=O)S[C@@H]1CC2=CC(=O)CC[C@]2(C)[C@H]2CC[C@@]3(C)[C@@H](CC[C@@]34CCC(=O)O4)[C@H]12
Result: 1.86

Problem: What does the record list as optomotor response to blue moving lines for C#CCN[C@@H]1CCc2ccccc21 [Rasagiline mesylate] ?
Result: 15.8

Problem: Please look up its optomotor response to blue moving lines: CCCC1O[C@@H]2C[C@H]3[C@@H]4CCC5=CC(=O)C=C[C@]5(C)[C@H]4[C@@H](O)C[C@]3(C)[C@]2(C(=O)CO)O1 (stereo not given in full) [Budesonide]
Result: 2.29

Problem: Any idea what optomotor response to blue moving lines was measured for CCCN(CCC)S(=O)(=O)c1ccc(C(=O)O)cc1 ?
Result: 2.07

Problem: Name the recorded optomotor response to blue moving lines for COc1ccc([C@@H]2Sc3ccccc3N(CCN(C)C)C(=O)[C@@H]2OC(C)=O)cc1 [Diltiazem hydrochloride] .
Result: -5.83

Problem: Form field: reported optomotor response to blue moving lines of CC#C[C@]1(O)CC[C@H]2[C@@H]3CCC4=CC(=O)CCC4=C3[C@@H](c3ccc(N(C)C)cc3)C[C@@]21C
Result: 11
